Data origin, for the record: patent US20250206729A1

Test system: MiaPaca-2 cells
Test protocol: MiaPaca-2 cell proliferation assay
Format: cell-based
Particulars: Homo sapiens, MIA PaCa-2; 67-72 h incubation, resazurin; read-out: MiaPaca-2 (inhibition of cell proliferation, IC50)
Measure: IC50

Cc1ccc(NC(=O)c2cc(C3CC3)cnn2)cc1-c1cccc(N2CCOCC2)c1: 500 to 1000 nM
Cc1ccc(NC(=O)c2cc(C(F)(F)F)cnn2)cc1-c1ccnc(N2C[C@H]3C[C@@H]2CO3)c1: < 100 nM
CNc1cc(N2C[C@H]3C[C@@H]2CO3)nc(-c2cc(NC(=O)c3cc(C(F)(F)F)cnn3)ccc2C)n1: 500 to 1000 nM

Now look at this entry.
Query: IC50; subject: Cc1ccc(NC(=O)c2cc(C(C)(F)F)cnn2)cc1-c1cc(N[C@H](C)CO)nc(N2CCOCC2)c1
< 100 nM

###

Catalogue of pIC50 values
Study target: C-Raf kinase (SEQ ID NO: 2) (Homo sapiens, UniProt P04049, Y340D/Y341D)
Construct: C-Raf residues 306-end; Y340D, Y341D with N-; GST (N); purchased Sigma
Sequence (P04049 307-648 Y340D/Y341D): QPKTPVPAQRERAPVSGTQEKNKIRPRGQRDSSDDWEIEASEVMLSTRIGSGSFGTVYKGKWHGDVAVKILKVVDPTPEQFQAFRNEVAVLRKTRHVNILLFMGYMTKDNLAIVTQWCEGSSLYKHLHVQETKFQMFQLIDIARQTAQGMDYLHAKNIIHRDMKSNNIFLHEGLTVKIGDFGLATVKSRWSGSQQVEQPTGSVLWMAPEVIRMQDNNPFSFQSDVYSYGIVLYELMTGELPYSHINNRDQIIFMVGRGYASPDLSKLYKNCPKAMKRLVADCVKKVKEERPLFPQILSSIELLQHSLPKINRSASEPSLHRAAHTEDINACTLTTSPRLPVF
Test protocol: Biochemical assay for C-Raf (coupled pyruvate kinase/lactate dehydrogenase)
Particulars: 1 mM ATP; read-out: CRAF (inhibition of biochemical activity, IC50)
pIC50: −log10 of the molar value.

Reference set (2 entries):
Cc1ccc(NC(=O)c2cc(C(C)C)cnn2)cc1-c1ccnc(N2CCOCC2)c1: > 7.00
Cc1ccc(NC(=O)c2cc(Br)cnn2)cc1-c1cc(OCCO)nc(N2CCOCC2)c1: > 7.00

Query: pIC50; subject: Cc1ccc(NC(=O)c2cc(C3CC3)cnn2)cc1-c1cncc(N2CCOCC2)c1
> 7.00

Query: pIC50; subject: Cc1ccc(NC(=O)c2cc(C(F)(F)F)cnn2)cc1-c1ccnc(N2CCOC(C(F)(F)F)C2)c1 (stereo not shown)
5.00 to 6.00

###

Catalogue of IC50 values
Study target: C-Raf kinase (SEQ ID NO: 2) (Homo sapiens, UniProt P04049, Y340D/Y341D)
Construct: C-Raf residues 306-end; Y340D, Y341D with N-; GST (N); purchased Sigma
Test protocol: Biochemical assay for C-Raf (coupled pyruvate kinase/lactate dehydrogenase)
Particulars: 1 mM ATP; read-out: CRAF (inhibition of biochemical activity, IC50)

Cc1ccc(NC(=O)c2cc(C(C)C)cnn2)cc1-c1cccc(N2CCOCC2)c1: < 0.1 µM

Query IC50 on C-Raf kinase (SEQ ID NO: 2) (Homo sapiens, UniProt P04049, Y340D/Y341D) for Cc1ccc(NC(=O)c2cncc(C(F)(F)F)c2)cc1-c1cc(OCCO)nc(N2CCOCC2)c1
< 0.1 µM

Query IC50 on C-Raf kinase (SEQ ID NO: 2) (Homo sapiens, UniProt P04049, Y340D/Y341D) for Cc1ccc(NC(=O)c2cc(Cl)cnn2)cc1-c1cc(N[C@H](C)CO)nc(N2CCOCC2)c1
< 0.1 µM

###

Study target: B-Raf kinase (SEQ ID NO: 1) (Homo sapiens, UniProt P15056)
Construct: GST (N); purchased Sigma
Sequence (P15056 416-766): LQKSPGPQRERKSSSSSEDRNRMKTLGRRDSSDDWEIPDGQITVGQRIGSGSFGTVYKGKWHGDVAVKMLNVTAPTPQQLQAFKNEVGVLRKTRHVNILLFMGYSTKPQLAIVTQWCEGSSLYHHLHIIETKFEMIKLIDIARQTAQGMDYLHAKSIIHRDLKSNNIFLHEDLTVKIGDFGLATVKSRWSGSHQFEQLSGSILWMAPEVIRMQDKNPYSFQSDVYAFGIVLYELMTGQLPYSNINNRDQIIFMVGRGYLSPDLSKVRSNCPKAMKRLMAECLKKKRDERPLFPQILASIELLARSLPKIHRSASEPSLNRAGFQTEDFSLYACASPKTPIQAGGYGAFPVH
Test protocol: Biochemical assay for B-Raf (coupled pyruvate kinase/lactate dehydrogenase)
Particulars: Table 3; read-out: BRAF
Measure: IC50

Reference set (2 entries):
Cc1ccc(NC(=O)c2cc(C(C)(C)F)cnn2)cc1-c1cc(OCCO)nc(N2CCOCC2)c1: < 0.1 µM
Cc1ccc(NC(=O)c2cc(C(F)(F)F)cnn2)cc1-c1cc(N2CCOCC2)nc(OCCO)n1: 0.1 to 0.5 µM

Query: IC50; subject: Cc1ccc(NC(=O)c2cc(C(F)(F)F)cnn2)cc1-c1cncc(N2CCOCC2)c1
0.1 to 0.5 µM

###

Catalogue of pIC50 values
Study target: C-Raf kinase (SEQ ID NO: 2) (Homo sapiens, UniProt P04049, Y340D/Y341D)
Construct: C-Raf residues 306-end; Y340D, Y341D with N-; GST (N); purchased Sigma
Test protocol: Biochemical assay for C-Raf (coupled pyruvate kinase/lactate dehydrogenase)
Particulars: Table 4; read-out: CRAF
pIC50: −log10 of the molar value.

Cc1ccc2c(Nc3cccc(Cl)c3F)nccc2c1NC(=O)c1csc2c(N)ncnc12 [Belvarafenib, reference compound]: > 7.00

Now look at this entry.
Query: pIC50; subject: Cc1ccc(NC(=O)c2ccnc(C(F)(F)F)c2)cc1-c1cc(OCCO)nc(N2CCOCC2)c1 [Naporafenib, reference compound]
> 7.00

###

Catalogue of IC50 values
Study target: C-Raf kinase (SEQ ID NO: 2) (Homo sapiens, UniProt P04049, Y340D/Y341D)
Construct: C-Raf residues 306-end; Y340D, Y341D with N-; GST (N); purchased Sigma
Test protocol: Biochemical assay for C-Raf (coupled pyruvate kinase/lactate dehydrogenase)
Particulars: 1 mM ATP; read-out: CRAF (inhibition of biochemical activity, IC50)

Cc1ccc(NC(=O)c2cc(Cl)cnn2)cc1-c1cncc(N2CCOCC2)c1: 1 to 10 µM
Cc1ccc(NC(=O)c2cc(Cl)cnn2)cc1-c1ccnc(N2CCOCC2)n1: 1 to 10 µM
Cc1cc(-c2cc(NC(=O)c3cc(C(F)(F)F)cnn3)ccc2C)cc(N2CCOCC2)n1: < 0.1 µM
Cc1ccc(NC(=O)c2cc(C3CC3)cnn2)cc1-c1nc(N[C@H](C)CO)cc(N2CCOCC2)n1: 0.5 to 1 µM
Cc1ccc(NC(=O)c2cc(C(C)(F)F)cnn2)cc1-c1cc(NCCO)nc(N2CCOCC2)c1: < 0.1 µM

Query: IC50; subject: Cc1ccc(NC(=O)c2cc(C(F)(F)F)cnn2)cc1-c1cncc(N2CCOCC2)c1
< 0.1 µM

###

Study target: Porcine Brain Tubulin (Sus scrofa, UniProt P02550+P02554)
Test protocol: Biochemical tubulin polymerization assay
Particulars: maximum velocity of polymerization, FIG. 1; read-out: IC50 of inhibition of tubulin polymerization, biochemical tubulin assay
Measure: pIC50
Lab note — pIC50 values are minus log10 of concentrations in M.

Query: pIC50; subject: CC(C)(C)c1[nH]cnc1/C=c1\[nH]c(=O)/c(=C/c2ccccc2)[nH]c1=O [plinabulin, reference compound]
5.57

###

Study target: B-Raf kinase (SEQ ID NO: 1) (Homo sapiens, UniProt P15056)
Construct: GST (N); purchased Sigma
Test protocol: Biochemical assay for B-Raf (coupled pyruvate kinase/lactate dehydrogenase)
Particulars: Table 3; read-out: BRAF
pIC50: −log10 of the molar value.
Measure: pIC50

Reference set (5 entries):
Cc1ccc(NC(=O)c2cc(C(F)(F)F)cnn2)cc1-c1nc(N[C@H](C)CO)cc(N2CCOCC2)n1 [Example 49]: 5.00 to 6.00
Cc1ccc(NC(=O)c2cc(C3CCC3)cnn2)cc1-c1cc(N[C@H](C)CO)nc(N2CCOCC2)c1 [Example 48]: > 7.00
Cc1ccc(NC(=O)c2cc(C3CC3)cnn2)cc1-c1cc(OCCO)nc(N2CCOCC2)c1 [Example 37]: > 7.00
Cc1ccc(NC(=O)c2cc(C(F)(F)F)cnn2)cc1-c1ccnc(N2CC3CCC(C2)O3)c1 [Example 83]: > 7.00
Cc1ccc(NC(=O)c2cc(C(F)(F)F)cnn2)cc1-c1ccnc(N2CCOCC2)n1 [Example 29]: 5.00 to 6.00

Query pIC50 on B-Raf kinase (SEQ ID NO: 1) (Homo sapiens, UniProt P15056) for Cc1ccc(NC(=O)c2cc(C(C)C)cnn2)cc1-c1cc(N[C@H](C)CO)nc(N2CCOCC2)c1 [Example 14]
> 7.00

Query pIC50 on B-Raf kinase (SEQ ID NO: 1) (Homo sapiens, UniProt P15056) for Cc1ccc(NC(=O)c2cc(C(F)(F)F)cnn2)cc1-c1cc(N[C@H](C)CO)nc(N2CCOCC2)c1 [Example 19]
> 7.00

Query pIC50 on B-Raf kinase (SEQ ID NO: 1) (Homo sapiens, UniProt P15056) for Cc1ccc(NC(=O)c2cc(C(F)(F)F)cnn2)cc1-c1cc(OCCO)nc(N2CCOCC2)c1 [Example 6]
> 7.00

###

Study target: C-Raf kinase (SEQ ID NO: 2) (Homo sapiens, UniProt P04049, Y340D/Y341D)
Construct: C-Raf residues 306-end; Y340D, Y341D with N-; GST (N); purchased Sigma
Test protocol: Biochemical assay for C-Raf (coupled pyruvate kinase/lactate dehydrogenase)
Particulars: 1 mM ATP; read-out: CRAF (inhibition of biochemical activity, IC50)
pIC50: −log10 of the molar value.
Measure: pIC50

Cc1ccc(NC(=O)c2cc(Cl)cnn2)cc1-c1ccnc(N2CCOCC2)c1: 6.00 to 6.30
Cc1ccc(NC(=O)c2cnc(N)nc2)cc1-c1cc(N[C@H](C)CO)nc(N2CCOCC2)c1: 6.00 to 6.30
Cc1ccc(NC(=O)c2cc(C3CC3)cnn2)cc1-c1cncc(N2CCOCC2)n1: 6.00 to 6.30
Cc1ccc(NC(=O)c2cc(Cl)cnn2)cc1-c1cncc(N2CCOCC2)n1: 5.00 to 6.00
Cc1ccc(NC(=O)c2cc(C(F)(F)F)cnn2)cc1-c1cc(N2CCOCC2)cnn1: 5.00 to 6.00

Query: pIC50; subject: Cc1ccc(NC(=O)c2cc(C(F)(F)F)cnn2)cc1-c1cc(C2CC2)nc(N2CCOCC2)c1
6.30 to 7.00

Query: pIC50; subject: Cc1ccc(NC(=O)c2cc(C(C)C)cnn2)cc1-c1cc(OCCO)nc(N2CCOCC2)c1
> 7.00

Query: pIC50; subject: Cc1ccc(NC(=O)c2cc(C(C)(F)F)cnn2)cc1-c1cc(OCCO)nc(N2CCOCC2)c1
> 7.00
